assay: self-splicing fitness, log relative to wild type (ln ratio); higher = more splicing; Tetrahymena group I intron in knt gene, E. coli kanamycin selection, DiMSum; sequences stand for … in CUCUCU…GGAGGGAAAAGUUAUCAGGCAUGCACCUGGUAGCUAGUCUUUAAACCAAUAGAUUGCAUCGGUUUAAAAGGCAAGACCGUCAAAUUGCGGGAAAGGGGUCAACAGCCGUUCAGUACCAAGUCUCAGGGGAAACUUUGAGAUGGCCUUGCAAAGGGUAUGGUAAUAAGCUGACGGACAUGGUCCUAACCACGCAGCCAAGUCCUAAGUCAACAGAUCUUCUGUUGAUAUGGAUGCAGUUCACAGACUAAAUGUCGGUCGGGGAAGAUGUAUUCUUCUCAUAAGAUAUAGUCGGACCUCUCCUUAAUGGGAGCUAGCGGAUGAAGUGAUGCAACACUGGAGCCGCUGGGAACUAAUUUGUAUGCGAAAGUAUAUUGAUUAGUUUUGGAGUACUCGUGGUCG; conditions: 37 °C;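 further: selection with 25 µg/mL kanamycin versus none on LB agar overnight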
Reported values of self-splicing fitness (ln) for individual entries

sequence_chain: GACAAGCAAUAUUACGAUUA
self-splicing fitness (ln): -0.117
--
sequence_chain: ACCUAGCAAUAUUACGCUAA
self-splicing fitness (ln): -1.32
--
sequence_chain: UAUAAGCAAUAUUACGUAUG
self-splicing fitness (ln): -0.577
--
sequence_chain: GCUUAGCAAUAUUACGUUAG
self-splicing fitness (ln): -1.1
--
sequence_chain: GCGCAGCAAUAUUACGCAGA
self-splicing fitness (ln): -2.5
--
sequence_chain: AAACAGCAAUAUUACGAGAU
self-splicing fitness (ln): -2
--
sequence_chain: CUUUAGCAAUAUUACGGGGG
self-splicing fitness (ln): -2.65
--
sequence_chain: GUGAAGCAAUAUUACGGGAU
self-splicing fitness (ln): -0.971
--
sequence_chain: UGACAGCAAUAUUACGGCAG
self-splicing fitness (ln): 0.0375
--
sequence_chain: GUAGAGCAAUAUUACGCUCG
self-splicing fitness (ln): -0.12
--
sequence_chain: AGACAGCAAUAUUACGACGU
self-splicing fitness (ln): -0.185
--
sequence_chain: ACCAAGCAAUAUUACGACAC
self-splicing fitness (ln): -1.3
--
sequence_chain: CAUAAGCAAUAUUACGUGCA
self-splicing fitness (ln): -2.4
--
sequence_chain: GGUUAGCAAUAUUACGACCU
self-splicing fitness (ln): -0.0941
--
sequence_chain: UUAGAGCAAUAUUACGUUAG
self-splicing fitness (ln): 0.238
--
sequence_chain: CCGCAGCAAUAUUACGCAGA
self-splicing fitness (ln): -2.25
--
sequence_chain: CGGAAGCAAUAUUACGGUGA
self-splicing fitness (ln): -2.07
--
sequence_chain: GAGGAGCAAUAUUACGGACG
self-splicing fitness (ln): -0.785
--
sequence_chain: CGUAAGCAAUAUUACGUCGG
self-splicing fitness (ln): -0.133
--
sequence_chain: GGUAAGCAAUAUUACGACUA
self-splicing fitness (ln): -0.574
--
sequence_chain: CAUGAGCAAUAUUACGUGCG
self-splicing fitness (ln): -0.908
--
sequence_chain: AUACAGCAAUAUUACGCUAU
self-splicing fitness (ln): -1.29
--
sequence_chain: AGCGAGCAAUAUUACGGGUG
self-splicing fitness (ln): -1.21
--
sequence_chain: AACAAGCAAUAUUACGGUGG
self-splicing fitness (ln): -0.813
--
sequence_chain: CCGCAGCAAUAUUACGUCAG
self-splicing fitness (ln): 0.0667
--
sequence_chain: UUCGAGCAAUAUUACGAUCA
self-splicing fitness (ln): -0.432
--
sequence_chain: CAGCAGCAAUAUUACGAAUA
self-splicing fitness (ln): -1.9
--
sequence_chain: AGUCAGCAAUAUUACGGAUG
self-splicing fitness (ln): 0.106
--
sequence_chain: AAAAAGCAAUAUUACGGGAA
self-splicing fitness (ln): -1.82
--
sequence_chain: AGCAAGCAAUAUUACGUGCA
self-splicing fitness (ln): 0.058
--
sequence_chain: UCGUAGCAAUAUUACGUUUC
self-splicing fitness (ln): -2.31
--
sequence_chain: GGUAAGCAAUAUUACGAACC
self-splicing fitness (ln): -1.64
--
sequence_chain: AGCUAGCAAUAUUACGGGUU
self-splicing fitness (ln): -2.12
--
sequence_chain: CACGAGCAAUAUUACGAAGC
self-splicing fitness (ln): -1.41

Data provenance: the supplement of paper PMC7877785
